- assayMethodText: gradient 5% acetonitrile 3 min, to 50% in 2 min, to 85% in 15 min, held 3 min, 100 µL/min
- conditionInfo: column: Zorbax Extend-C18 2.1 x 50 mm; eluents: water / acetonitrile, 0.1% formic acid
recordedMetric: RP-LC retention time (s)

CC(C)c1nnc(C2CN(Cc3ccc(F)c(Cl)c3)CC23CCN(C)CC3)o1 (stereo not drawn)    591
CN1C(=O)c2cccnc2Sc2cc(NC(=O)c3ccc(F)cc3Cl)ccc21    796
CN(C)CCc1c[nH]c2ccc(CS(=O)(=O)N3CCCC3)cc12    629

----------
- assayMethodText: gradient 5% acetonitrile 3 min, to 50% in 2 min, to 85% in 15 min, held 3 min, 100 µL/min
- conditionInfo: column: Zorbax Extend-C18 2.1 x 50 mm; eluents: water / acetonitrile, 0.1% formic acid
recordedMetric: RP-LC retention time (s)

COc1ccc(NC(=O)C2(C)Oc3cccnc3N(C)C2=O)cc1Cl (stereo not given)    842
COc1cccc(-n2c(N3CCCC(C(=O)NCC4CC4)C3)nc3ccsc3c2=O)c1 (stereo not given)    771
COC(=O)C(C)NC(=O)NC1CCN(C2=NS(=O)(=O)C(c3ccccc3)=C2C)CC1 (stereo not given)    718
CN1c2cc(C(=O)NCc3cc(F)cc(F)c3)ccc2C(=O)N2CCCCC21 (stereo not given)    844
CCc1nc(-c2csc(S(=O)(=O)N3CCC(C(=O)Nc4ccccc4F)CC3)c2)no1    981

----------
- assayMethodText: gradient 5% acetonitrile 3 min, to 50% in 2 min, to 85% in 15 min, held 3 min, 100 µL/min
- conditionInfo: column: Zorbax Extend-C18 2.1 x 50 mm; eluents: water / acetonitrile, 0.1% formic acid
recordedMetric: RP-LC retention time (s)

CCCC(NC(=O)c1cccc(C)c1)C(=O)Nc1nc2ccccc2[nH]1 (stereo not drawn)    715
CCC(C)NC(=O)C1CCN(S(=O)(=O)c2c(C)nn(-c3ccc(C)cc3)c2C)CC1 (stereo not drawn)    683
Cc1cc(NC(=O)C2CCCN(c3ccc(-c4ccc(Cl)cc4)nn3)C2)no1 (stereo not drawn)    686
CCCn1ncc(N2CCC(C(=O)NCCc3cccs3)CC2)cc1=O    714
CC(=O)N1CCc2cc(N3CC(C(=O)NCc4ccc(Cl)cc4)CC3=O)ccc21 (stereo not drawn)    720
N#Cc1ccc(C(=O)N2CC(n3cc(C(=O)NCC4CC4)nn3)C2)cc1    701
CCN1CCN(C(=O)C2Cn3cccc3C(=O)N2CC(C)C)CC1 (stereo not drawn)    573
Cc1ccsc1CN1CCCC1c1nnc2n1CCN(C(=O)C(C)C)CC2 (stereo not drawn)    585
COC(=O)c1cc(S(=O)(=O)N2CCCC2C(=O)Nc2ccc(F)cc2)cn1C (stereo not drawn)    830
COc1ccc(C(=O)N2CCC3(C2)C(=O)N(C)c2ccccc23)cc1OC (stereo not drawn)    714

A. O=C(COc1ccc(F)cc1)NCC1CCC(c2nc3ccccc3[nH]2)CC1 (stereo not drawn)
B. COc1ccc(-c2nc3cnccn3c2Nc2cccc(C)c2C)cc1
In: Which record shows the lower RP-LC retention time: the first, A , or the second, B ? Your answer should be the label attached to the chosen record.
Out: A

----------
- assayMethodText: gradient 5% acetonitrile 3 min, to 50% in 2 min, to 85% in 15 min, held 3 min, 100 µL/min
- conditionInfo: column: Zorbax Extend-C18 2.1 x 50 mm; eluents: water / acetonitrile, 0.1% formic acid
recordedMetric: RP-LC retention time (s)

a. Cc1cccc(C)c1NC(=O)N1CCN(CCn2c(C(C)C)nc3cccnc32)CC1
b. Cc1ccccc1Nc1c(-c2cccc(Br)c2)nc2cnccn12
In: Pick the one with the larger RP-LC retention time: a vs b Your answer should be the label attached to the chosen record.
Out: b
